Entries and their pIC50 values follow.
# experimental.target: Protein farnesyltransferase (Homo sapiens, UniProt P49354+P49356)
# protocol.summary: Concentration required to inhibit recombinant human farnesyltransferase (FTase) catalyzed incorporation of [3H]FPP into recombinant Ras-CVIM.
Lab note: report pIC50 as minus log10 of the concentration in molar units, number only.

Reference set (3 entries):
Reported pIC50 ( CCC1(c2cccc(Oc3cc(Cc4cncn4C)ccc3C#N)c2)CCCCN(C)C1=O (centres undefined) ) = 9.22

Quick note, pIC50 for CCCC[C@@]1(c2cccc(Oc3cc([C@](C)(N)c4cncn4C)ccc3C#N)c2)CCCCN(C)C1=O landed at 9.92

Record CC[C@]1(c2cccc(Oc3cc(Cn4ccnc4)ccc3C#N)c2)CCCCN(C)C1=O , field pIC50: 8.28

***
Lookup result for CC[C@@]1(c2cccc(Oc3cc([C@@](C)(N)c4cncn4C)ccc3C#N)c2)CCCCN(C)C1=O (stereo in doubt) ; measured pIC50: 9.44

----------
# experimental.target: Protein farnesyltransferase (Homo sapiens, UniProt P49354+P49356)
# protocol.summary: Concentration required to inhibit recombinant human farnesyltransferase (FTase) catalyzed incorporation of [3H]FPP into recombinant Ras-CVIM.
# Assay type: protein-complex assay
reported.property: IC50
The answer should read as a number with its unit following.

Hey, Protein farnesyltransferase (Homo sapiens, UniProt P49354+P49356) data for CCC1(c2cccc(Oc3cc(Cn4ccnc4)ccc3C#N)c2)CCCCN(C(C)=O)C1 (stereo not given) : IC50 came out at 1.9 nM

New cases:
Case CCC1(c2cccc(Oc3cc(C(=O)c4cncn4C)ccc3C#N)c2)CCCCN(C)C1=O (stereo not given) , Protein farnesyltransferase (Homo sapiens, UniProt P49354+P49356), IC50 recorded as 1800 nM

GET /values?item= CN1CCCC[C@@](CCC(F)(F)F)(c2cccc(Oc3cc([C@](C)(N)c4cncn4C)ccc3C#N)c2)C1=O &system= Protein farnesyltransferase (Homo sapiens, UniProt P49354+P49356) returns IC50: 0.19 nM

For CCC1(c2cccc(Oc3cc(C(C)(N)c4cncn4C)ccc3C#N)c2)CCCCN(C)C1=O (stereo not given) on Protein farnesyltransferase (Homo sapiens, UniProt P49354+P49356), measured IC50 was 0.38 nM

# value of IC50, Protein farnesyltransferase (Homo sapiens, UniProt P49354+P49356), item CCC1(c2cccc(Oc3cc(C(C)(O)c4cncn4C)ccc3C#N)c2)CCCCN(C)C1=O (stereo not given) = 1.2 nM

----------
# experimental.target: Protein farnesyltransferase (Homo sapiens, UniProt P49354+P49356)
# protocol.summary: Inhibition of hDJ2 protein farnesylation
pEC50: recorded values
Answer as the number alone; pEC50 is minus log10 of concentration in mol/L.

// assay Protein farnesyltransferase (Homo sapiens, UniProt P49354+P49356), entry CC[C@@]1(c2cccc(Oc3cc([C@](C)(N)c4cncn4C)ccc3C#N)c2)CCCCN(C)C1=O , pEC50 value = 8.68

For the compound CN1CCCC[C@@](CC2CC2)(c2cccc(Oc3cc([C@](C)(N)c4cncn4C)ccc3C#N)c2)C1=O , the measured pEC50 on Protein farnesyltransferase (Homo sapiens, UniProt P49354+P49356) was 8.82

Entry CN1CCCC[C@@](CCC2CC2)(c2cccc(Oc3cc([C@](C)(N)c4cncn4C)ccc3C#N)c2)C1=O , Protein farnesyltransferase (Homo sapiens, UniProt P49354+P49356) data, pEC50 value: 7.96

Next:
Readout pEC50 for CC[C@@]1(c2cccc(Oc3cc([C@@](C)(N)c4cncn4C)ccc3C#N)c2)CCCCN(C)C1=O (stereo in doubt) , test system Protein farnesyltransferase (Homo sapiens, UniProt P49354+P49356), was 8.22

Result for CC[C@]1(c2cccc(Oc3cc([C@@](C)(N)c4cncn4C)ccc3C#N)c2)CCCCN(C)C1=O , tested on Protein farnesyltransferase (Homo sapiens, UniProt P49354+P49356), pEC50: 6.92
